Tested on: Vero E6 infected with SARS-CoV-2
test: inhibition of SARS-CoV-2 cytopathic effect; higher = more antiviral protection, active = above 15
measurement.setup: 833.33 nM; 48 h
assay.readout: inhibition of SARS-CoV-2 cytopathic effect (%)
Report the value in % with no unit label.

{"compound": "CCCc1nc(C(C)(C)O)c(C(=O)O)n1Cc1ccc(-c2ccccc2-c2nnn[nH]2)cc1", "study.system": "Vero E6 infected with SARS-CoV-2", "units.text": "%", "readout.number": 0.82}
{"compound": "CCCCc1nn(-c2ccccc2C(F)(F)F)c(=O)n1Cc1ccc(-c2ccccc2S(=O)(=O)NC(=O)c2sccc2C)cc1", "study.system": "Vero E6 infected with SARS-CoV-2", "units.text": "%", "readout.number": -2.77}

Input: Given the compound C[C@H]1CO[C@@H]2Cn3cc(C(=O)NCc4ccc(F)cc4F)c(=O)c(O)c3C(=O)N12 , write its reported inhibition of SARS-CoV-2 cytopathic effect.
Output: 1.33
